FYI, the data here is from PubChem BioAssay (NCI).

Recorded TGI values for a group of compounds are listed next.
Tested on: BT-549 breast
Assay: NCI tumour cell line growth inhibition, 48 h

compound	TGI
Clc1ccccc1C(Nc1cnccn1)Nc1cnccn1	> 100 µM
Cc1ccc(/C(=N/Nc2ccc([N+](=O)[O-])cc2)Sc2cc(Cl)c(C)cc2S(N)(=O)=O)cc1	26 µM
Cn1c(=O)c2c(nc3[nH]c(=O)c(Br)cn32)n(C)c1=O	> 100 µM
COC(=O)C1=C(CCCCO[Si](C)(C)C(C)(C)C)NC(=O)N2[C@H](CCOCc3ccccc3)CC[C@@H]12	> 100 µM
CCN1CC2(C)CCC(OC)C34C5CC6CCC(O)(C5C(=O)O6)C(C(O)C23)C14 (stereo not given)	> 100 µM
O=C1c2ccccc2-c2nc3ccncc3n21	> 100 µM
COc1ccc(-n2c(=S)sc3c(Cl)nc(C)nc32)c(OC)c1	4.28 µM
CC(C)(C)C[C@H]1N[C@@H](C(=O)NC2CCC(O)CC2)[C@H](c2cccc(Cl)c2F)[C@@]12C(=O)Nc1cc(Cl)ccc12 (stereo not given in full)	14.1 µM
CC1=NN(c2cccc(Cl)c2)C(=O)/C1=C\c1cn(CC(O)CN2CCCCC2)c2ccccc12 (stereo not given)	29.5 µM
COc1cc(/C=N/NC(=O)c2cnn3c2NC(c2ccccc2)C3)ccc1OC1CCCC1 (stereo not given)	5.74 µM
N[C@@H](CCC(=O)NC(Cc1ccccc1)C(=O)NCP(=O)(O)O)C(=O)O (stereo not given in full)	> 100 µM
O=CCCCCCOCc1ccccc1	> 100 µM
C=C1c2nc3ccccc3n2C=C(c2ccc(C)cc2)N1c1ccc(OC)cc1	> 100 µM
CC(C)(C)C(=O)Nc1c(C=O)ccc2[nH]cnc12	> 100 µM
CC(=O)NC1C(OCc2ccccc2)OC(CO)C(O)C1OC(C)C(=O)N[C@@H](C)C(=O)N[C@H](CCC(=O)NCCNCCNc1c2ccccc2nc2cccc([N+](=O)[O-])c12)C(N)=O (stereo not given in full)	0.221 µM
O=P1(N(CCCl)CCCl)Oc2ccc(Cl)cc2C(C(Cl)(Cl)Cl)c2cc(Cl)ccc2O1 (stereo not given)	> 100 µM
COc1cc(O)ccc1C(=S)SC	> 100 µM
COC(=O)c1sc(=O)sc1SCc1cccc(CSc2sc(=O)sc2C(=O)OC)c1	> 100 µM
Cc1cn(CCCCCCOC(=O)NC(CCCNC(N)=O)C(=O)O)c(=O)[nH]c1=O (stereo not given)	> 100 µM
O=C1[C@@H]2[C@@H](CN3CN(c4ccccc4)N=C(c4ccccc4)[C@@]23c2ccccc2)C(=O)N1c1ccccc1	13.2 µM
Oc1ccc(Cl)cc1C=Nc1cnc2ccccc2c1	> 100 µM
COc1nc(Cl)nc(N[C@H](C)c2c3ccccc3cc3ccccc23)n1	32.5 µM
CN1CCN(C(=O)c2cn(Cc3cncn3Cc3ccc4c(c3)OCO4)cc2-c2cccc3ccccc23)CC1	> 63 µM
N=C1CCCC1C(=S)SCCC(N)=O (stereo not given)	> 100 µM
N#C/C(=C\c1ccc2[nH]ccc2c1)C(=O)NCCCCNC(=O)/C(C#N)=C/c1ccc2[nH]ccc2c1	> 10 µM
C[C@]12CC[C@H]3[C@@H](CC=C4C[C@@H](N5CCCC5)CC[C@@]43C)[C@@H]1C[C@H](N1CCCCC1)[C@@H]2O	> 100 µM
COc1ccc2[nH]c(C(=O)N3CCN(C(=O)OCc4ccc5c(Cl)cc(Cl)c(O)c5n4)CC3)cc2c1	2.34 µM
CC1=C(C)C(=O)C(C2=CC(=O)c3ccccc3C2=O)=C(C2=CC(=O)c3ccccc3C2=O)C1=O	48.1 µM
COC1=CC(c2ccc[nH]2)=N/C1=C\c1[nH]c(C)c(C(=O)CCCCCCCCC(=O)O[C@H]2CC[C@H]3C4CCc5cc(O)ccc5C4CC[C@]23C)c1C (stereo not given in full)	> 45.1 µM
O=c1[nH]c(C2CCCN2)nc2c1oc1ccc(Cl)cc12 (stereo not given)	> 100 µM
Cc1cccc(C2NC(=O)c3ccccc3N2)c1 (stereo not given)	> 100 µM
COc1ccc2c(c1)C(=O)c1c-2c(OCCCN(C)C)nc2cc(Br)ccc12	28 µM
NC(N)=N/N=C\c1ccc(OCc2ccccc2)cc1	23 µM
Cn1c(I)c(C#C[Si](C)(C)C)c(=O)n(C(=O)c2ccccc2)c1=O	25.6 µM
COC(=O)[C@]1(c2cc3ccccc3n2S(=O)(=O)c2ccccc2)CC2CN(C(=O)OCc3ccccc3)C1C1OC(C)(C)OC21 (stereo not given in full)	> 100 µM
